measurement_target: purified Z-AAT protein (Homo sapiens, UniProt P01009, E366K)
Construct: Purified Z-AAT protein from human plasma
Sequence (P01009 25-418 E366K): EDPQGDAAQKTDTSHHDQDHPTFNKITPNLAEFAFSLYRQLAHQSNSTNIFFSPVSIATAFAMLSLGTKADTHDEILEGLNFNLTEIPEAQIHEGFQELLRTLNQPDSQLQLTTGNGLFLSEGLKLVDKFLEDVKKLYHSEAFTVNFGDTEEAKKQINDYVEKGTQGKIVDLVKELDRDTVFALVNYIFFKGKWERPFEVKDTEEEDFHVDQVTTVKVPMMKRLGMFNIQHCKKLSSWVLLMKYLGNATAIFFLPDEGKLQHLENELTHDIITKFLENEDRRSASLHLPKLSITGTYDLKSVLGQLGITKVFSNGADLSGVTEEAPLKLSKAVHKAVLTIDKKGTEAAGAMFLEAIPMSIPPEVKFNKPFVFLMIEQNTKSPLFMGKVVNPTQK
assay_info: Biochemical Assay (Z-AAT Elastase Activity Assay)
condition_label: purified Z-AAT pre-incubated with compound 1 hour, then hNE; N.D. = activity not detected up to 30 μM
measured_metric: IC50

| compound | result |
| --- | --- |
| Cc1cc(-n2c(C3CCOCC3)c(-c3ccc(C(=O)O)s3)c3c(O)c(F)ccc32)ccc1F | < 2 µM |
| COC(=O)N1CCCC(c2c(-c3ccc(C(=O)O)cc3)c3c(O)cccc3n2-c2ccc(F)cc2)C1 (stereo not shown) | > 5 µM |
| Cc1cc(-n2c(C3CCOCC3)c(CC3(C(=O)O)CC3)c3cc(F)ccc32)ccc1F | > 5 µM |
| COCC1(c2c(-c3ccc(C(=O)O)cc3)c3c(O)cc(F)cc3n2-c2ccc(F)c(C)c2)COC1 | > 5 µM |
| COC(=O)N1CCC(c2c(-c3ccc(C(=O)O)cc3)c3c(O)cccc3n2-c2ccc(F)cc2)C1 (stereo not shown) | > 30 µM |
| COc1cc(-n2c(C(C)(C)CC#N)c(-c3cc(C)c(C(=O)O)c(F)c3)c3c(O)cc(F)cc32)ccc1F | < 2 µM |

Provide the documented IC50 with purified Z-AAT protein (Homo sapiens, UniProt P01009, E366K) as the system for "COCC(C)(C)c1c(-c2ccc(C(=O)O)c(C)c2)c2c(O)cc(F)cc2n1-c1ccc(F)c(F)c1"
< 2 µM
